- test_description: Mammalian cell cytotoxicity assay, HepG2 (CellTiter-Glo, 72 h)
- assay_setup: human
Numbered stars: 1 amine (or outer) side, 2 acyl side, 3 side chain; on linkers, the order of the positions; unused ones are H or OH. Bridge positions count the residues as written; N and C are the ends. Square brackets hold non-standard residues; d marks the D form. Peptide text beside a SMILES is read from it. I, II: the chains in the order shown. Actinocin(9to1) = Cc1c2oc3c(C)ccc(C(=O)[*:1])c3nc-2c(C(=O)[*:2])c(N)c1=O; NMeV = CN[C@H](C(=O)O)C(C)C; Sar = CNCC(=O)O
readout_type: CC50 at 72 h (nM)
# output: bare number, implied unit nM

q: I am curious: what CC50 at 72 h value has been reported for COc1cccc2c1C(=O)c1c(O)c3c(c(O)c1C2=O)C[C@@](O)(C(=O)CO)C[C@@H]3O[C@H]1C[C@H](N2CCO[C@H](OC)C2)[C@H](O)[C@H](C)O1 [Nemorubicin, reference compound] ?
a: 2

q: Next compound up: Cc1c2oc3c(C)ccc(C(=O)N[C@@H]4C(=O)N[C@H](C(C)C)C(=O)N5CCC[C@H]5C(=O)N(C)CC(=O)N(C)[C@@H](C(C)C)C(=O)O[C@@H]4C)c3nc-2c(C(=O)N[C@@H]2C(=O)N[C@H](C(C)C)C(=O)N3CCC[C@H]3C(=O)N(C)CC(=O)N(C)[C@@H](C(C)C)C(=O)O[C@@H]2C)c(N)c1=O [Dactinomycin, reference compound] (I: T[dV]P[Sar][NMeV] / II: T[dV]P[Sar][NMeV]; ester I:1-I:C, II:1-II:C; linker I:N-II:N via Actinocin(9to1))
a: 3

q: Entry to check: Cc1cc2c(C(N)=O)cccc2n1-c1nc2c(c(NCc3ccccc3)n1)COCC2
a: 468

q: Same thing, different compound: CS[C@H]1SC[C@H]2C(=O)N(C)[C@@H](C(C)C)C(=O)OC[C@@H](NC(=O)c3cnc4ccccc4n3)C(=O)N[C@@H](C)C(=O)N(C)[C@@H]1C(=O)N(C)[C@@H](C(C)C)C(=O)OC[C@@H](NC(=O)c1cnc3ccccc3n1)C(=O)N[C@@H](C)C(=O)N2C
a: 1

====

- test_description: Mammalian cell cytotoxicity assay, HepG2 (CellTiter-Glo, 72 h)
- assay_setup: human, HepG2 cells
So I've got a bunch of compounds here, and I need their CC50 at 72 h values.
Dear colleague, please return just the value in nM, with no unit written.

q: // CC50 at 72 h lookup, key: COc1ccc(-c2nc(N3CCOCC3)c3sc(CN(C)c4ncc(C(=O)NO)cn4)cc3n2)cn1 [CUDC-907, reference compound]
a: 3

q: // next record CCN(CC)CC[n+]1ccc2c(C)c3[nH]c4ccc(O)cc4c3c(C)c2c1 [Datelliptium Chloride]
a: 505

q: Again, but for c1ccc(Cn2c(N3CCNCC3)nc3ccccc32)cc1
a: 236

q: Next record, please: CC(=O)Nc1cccc(-n2c(=O)n(C3CC3)c(=O)c3c(Nc4ccc(I)cc4F)n(C)c(=O)c(C)c32)c1 [Trametinib dimethyl sulfoxide]
a: 119

q: // query: CN(c1ccc(Cl)cc1)c1cc[n+](Cc2ccc(-c3ccc(C[n+]4ccc(N(C)c5ccc(Cl)cc5)c5ccccc54)cc3)cc2)c2ccccc12
a: 4770

q: Please give the result for COc1cccc2c1C(=O)c1c(O)c3c(c(O)c1C2=O)C[C@@](O)(C(=O)CO)C[C@@H]3O[C@H]1C[C@H](N)[C@H](O)[C@H](C)O1 too.
a: 44

q: And what about the compound O=C(NO)c1cnc(N2C[C@@H]3[C@H](C2)[C@H]3NCc2ccc3cc(F)ccc3n2)nc1 ?
a: 195

q: Repeat for the following compound: COC(=O)[C@]12CCC(C)(C)C[C@H]1[C@H]1C(=O)C=C3[C@@]4(C)C=C(C#N)C(=O)C(C)(C)[C@@H]4CC[C@@]3(C)[C@]1(C)CC2
a: 557

q: Repeat with CO[C@H]1C(=O)[C@]2(C)[C@@H](OC)C[C@H]3OC[C@@]3(OC(C)=O)[C@H]2[C@H](OC(=O)c2ccccc2)[C@]2(O)C[C@H](OC(=O)[C@H](O)[C@@H](NC(=O)OC(C)(C)C)c3ccccc3)C(C)=C1C2(C)C [Cabazitaxel, reference compound]
a: 784

q: How about CC1=C(c2ccc(O)cc2)[C@H](c2ccc(OCCN3CCCCC3)cc2)Oc2cc(O)ccc21 ?
a: 6210

q: Next compound: C[C@]12O[C@H](C[C@]1(O)CO)n1c3ccccc3c3c4c(c5c6ccccc6n2c5c31)CNC4=O
a: 29

q: Please do the same for COc1ccc(-c2ccc3ncc4c(c3c2)n(-c2ccc(N3CCNCC3)c(C(F)(F)F)c2)c(=O)n4C)cn1 [NVP-BGT226, reference compound] as well.
a: 3

q: Please give the result for CN1CCC(CNc2ccc3ncc(-c4cccc(OC(F)(F)F)c4)n3n2)CC1 too.
a: 1040

q: Another compound: c1cc(-c2nc3ccc(-c4ccc5nc(-c6ccncc6)[nH]c5c4)cc3[nH]2)ccn1
a: 3110

q: Query C/C(=C\c1csc(C)n1)[C@@H]1C[C@@H]2O[C@]2(C)CCC[C@H](C)[C@H](O)[C@@H](C)C(=O)C(C)(C)[C@@H](O)CC(=O)N1 [Ixabepilone] next
a: 7

q: Let us now turn to CCCCCC(=O)O[C@]1(C(C)=O)CC[C@H]2[C@@H]3CCC4=CC(=O)CC[C@]4(C)[C@H]3CC[C@@]21C [Hydroxyprogesterone caproate]
a: 863

q: Check COC1=C(C)C(=O)C2=C(C1=O)[C@@H](COC(N)=O)[C@@]1(OC)[C@H]3N[C@H]3CN21 [mitomycin A, reference compound] too.
a: 32

q: Entry COc1cc(N2CCC(N3CCN(C)CC3)CC2)ccc1Nc1ncc(Cl)c(Nc2ccccc2P(C)(C)=O)n1 please
a: 136

q: Now this one: CN(C)Cc1ccc(S(=O)(=O)n2ccc(/C=C/C(=O)NO)c2)cc1 [resminostat, reference compound]
a: 1200

q: Another compound to look at: N[C@H](C(=O)O)[C@@H]1CC(Cl)=NO1
a: 1700

q: What do you get for COc1ccc(C[C@H](N)C(=O)N[C@H]2[C@@H](O)[C@H](n3cnc4c(N(C)C)ncnc43)O[C@@H]2CO)cc1 ?
a: 498
